- experiment: Acute toxic examination (LD50), oral, rat
- testParameters: in vivo
- Experimental: The results of acute toxic examination (LD50) which was carried out with the rat through the oral dose of the compound were follows.
# LD50 annotations

{"molecule": "CC1(C)[C@@H](OC(=O)CCC(=O)O)CC[C@]2(C)[C@H]3C(=O)C=C4[C@@H]5C[C@@](C)(C(=O)O)CC[C@]5(C)CC[C@@]4(C)[C@]3(C)CC[C@@H]12 [Compound 3, Glycyrrhetic acid 3β-monohemisuccinate]", "LD50": "520 mg/kg"}
{"molecule": "CC1(C)[C@@H](OC(=O)c2ccccc2C(=O)O)CC[C@]2(C)[C@H]3CC=C4[C@@H]5C[C@@](C)(COC(=O)c6ccccc6C(=O)O)CC[C@]5(C)CC[C@@]4(C)[C@]3(C)CC[C@@H]12", "LD50": "1260 to 1520 mg/kg"}
{"molecule": "CC1(C)[C@@H](OC(=O)c2ccccc2C(=O)O)CC[C@]2(C)[C@H]3C=CC4=C5C[C@@](C)(COC(=O)c6ccccc6C(=O)O)CC[C@]5(C)CC[C@@]4(C)[C@]3(C)CC[C@@H]12", "LD50": "628 to 793 mg/kg"}
{"molecule": "CC1(C)[C@@H](OC(=O)c2ccccc2C(=O)O)CC[C@]2(C)[C@H]3C(=O)C=C4[C@@H]5C[C@@](C)(C(=O)O)CC[C@]5(C)CC[C@@]4(C)[C@]3(C)CC[C@@H]12 [Compound 4, Glycyrrhetic acid 3β-monohemiphthalate]", "LD50": "1320 mg/kg"}
{"molecule": "CC1(C)[C@@H](OC(=O)c2ccccc2C(=O)O)CC[C@]2(C)C3=CC=C4[C@@H]5C[C@@](C)(COC(=O)c6ccccc6C(=O)O)CC[C@]5(C)CC[C@@]4(C)[C@]3(C)CC[C@@H]12", "LD50": "1280 to 1500 mg/kg"}
